System: IL-6
Assay: IL-6 inhibition in LPS-stimulated human peripheral blood mononuclear cells (HTRF)
Type: cell-based
Conditions: Homo sapiens, PBMC, read-out: percent value in parentheses below EC50 >10
Entries annotated with measured inhibition at 10 µM

// solved cases for inhibition at 10 µM follow
- COMPOUND: "Cc1nnc(-c2ccc3cnc(NC(=O)N4[C@@H]5CC[C@H]4C[C@@H](NCCC(F)(F)F)C5)cc3c2)s1 [Compound 195]"
  OBSERVED_RESULT: "23.4%"
- COMPOUND: "Cc1nnc(-c2ccc3cnc(NC(=O)N4CCC(N(C)C)CC4)cc3c2)s1 [Compound 31]"
  OBSERVED_RESULT: "19.8%"
- COMPOUND: "Cc1nnc(-c2ccc3cnc(NC(=O)N4CC[C@@H](NC(C)C)[C@H](F)C4)cc3c2)s1 [Compound 130]"
  OBSERVED_RESULT: "12.2%"
- COMPOUND: "Cn1cc(-c2ccc3cnc(NC(=O)c4cc[n+]([O-])c(N5CC[N+](C)([O-])CC5)c4)cc3c2)nn1 [Compound 225]"
  OBSERVED_RESULT: "6.9%"
- COMPOUND: "[2H]C1([2H])OC([2H])([2H])C([2H])([2H])N(C(=O)Nc2cc3cc(-c4cnc(C)n4C)ccc3cn2)C1([2H])[2H] [Compound 143]"
  OBSERVED_RESULT: "5.7%"

Okay, now this compound:
Annotate the compound Cc1nnc(-c2cc(F)c3cnc(NC(=O)[C@H]4CC[C@H](N5CCOCC5)CC4)cc3c2)s1 [Compound 57] with its measured inhibition at 10 µM.
6.1%

====

Test system: Tau phosphorylation at Ser396 (pSer396), SH-SY5Y cells
Test: Tau phosphorylation at Ser396 (pSer396) in SH-SY5Y cells, ELISA/western blot;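 further: cell lysates probed for reduced Tau pSer396 via ELISA (colorimetric) or western blot (chemiluminescence), both with one shared pSer396 antibody, EC50 for lowering phosphorylation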
Format: cell-based, human
Settings: Homo sapiens; SH-SY5Y cells, overnight (16-18 h); read-out: pSer396 Tau EC50
PROPERTY_NAME: EC50

- SMILES_REPRESENTATION: "[2H]C1([2H])OC([2H])([2H])C([2H])([2H])N(c2cc(C(=O)Nc3cc4cc(-c5cnc(C)n5C)ccc4cn3)ccn2)C1([2H])[2H]"
  EC50: "> 10000 nM"
- SMILES_REPRESENTATION: "Cc1nnc(-c2ccc3cnc(NC(=O)[C@H]4CC[C@H](N(C)C)CC4)cc3c2)s1"
  EC50: "126 nM"
- SMILES_REPRESENTATION: "Cn1cc(-c2cc3cc(NC(=O)[C@H]4CC[C@H](N(C)C)CC4)ncc3cc2F)cn1"
  EC50: "559 nM"
- SMILES_REPRESENTATION: "Cc1ncc(-c2ccc3cnc(NC(=O)N4CCn5ccnc5C4)cc3c2)o1"
  EC50: "197 nM"
- SMILES_REPRESENTATION: "Cc1ncc(-c2ccc3cnc(NC(=O)N4CC[C@H](N)[C@@H](F)C4)cc3c2)o1"
  EC50: "656 nM"

Annotate the compound Cc1nnc(-c2ccc3cnc(NC(=O)N4CCN(C)CC4)cc3c2)s1 with its measured EC50.
1200 nM

Annotate the compound [2H]c1c([2H])c(C(=O)Nc2cc3cc(-c4cncn4C)ccc3cn2)c([2H])c([2H])c1OC with its measured EC50.
594 nM

Annotate the compound Cc1nnc(-c2ccc3cnc(NC(=O)N4CCC(N(C)C)CC4)cc3c2)s1 with its measured EC50.
386 nM

====

System: IL-6
Test: IL-6 inhibition in LPS-stimulated human peripheral blood mononuclear cells (HTRF)
Assay type: cell-based
Details: Homo sapiens, PBMC, read-out: percent value in parentheses below EC50 >10
Entries annotated with measured inhibition at 10 µM
Note: unit % is implicit; provide only the numeric part.

// solved cases for inhibition at 10 µM follow
- SMILES_REPRESENTATION: "CC(C)N1CCN(C(=O)Nc2cc3cc(-c4cnn(C)c4)ccc3cn2)CC1"
  inhibition at 10 µM / %: 4.8
- SMILES_REPRESENTATION: "[2H]C([2H])([2H])N([C@H]1CC[C@H](C(=O)Nc2cc3cc(-c4cnc(C)o4)ccc3cn2)CC1)C([2H])([2H])[2H]"
  inhibition at 10 µM / %: 14.3
- SMILES_REPRESENTATION: "Cc1nnc(-c2ccc3cnc(NC(=O)N4C5CCC4CN(C)C5)cc3c2)s1"
  inhibition at 10 µM / %: 4.1
- SMILES_REPRESENTATION: "C[C@H]1CN(C)CCN1C(=O)Nc1cc2cc(-c3cnn(C)c3)ccc2cn1"
  inhibition at 10 µM / %: 6.4
- SMILES_REPRESENTATION: "[2H]C([2H])([2H])[N+]1([O-])CCN(c2cc(C(=O)Nc3cc4cc(-c5cn(C)nn5)ccc4cn3)ccn2)CC1"
  inhibition at 10 µM / %: 4.5
- SMILES_REPRESENTATION: "Cc1nnc(-c2ccc3cnc(NC(=O)N4CCN(C)CC4)cc3c2)s1"
  inhibition at 10 µM / %: 8.5

Annotate the compound [2H]c1c([2H])c([2H])c(C(=O)Nc2cc3cc(-c4cncn4C)ccc3cn2)c(Cl)c1[2H] with its measured inhibition at 10 µM.
47.6

Annotate the compound Cc1nnc(-c2cc(F)c3cnc(NC(=O)N(C)C4CCN(C)CC4)cc3c2)s1 with its measured inhibition at 10 µM.
4.9

Annotate the compound [2H]C1([2H])OC([2H])([2H])C([2H])([2H])N(CC(=O)Nc2cc3cc(-c4cnc(C)s4)ccc3cn2)C1([2H])[2H] with its measured inhibition at 10 µM.
9.4

Annotate the compound Cc1nnc(-c2ccc3cnc(NC(=O)N4CCN(C(C)C)CC4)cc3c2)s1 with its measured inhibition at 10 µM.
2.1

Annotate the compound Cc1nnc(-c2ccc3cnc(NC(=O)N4CC5CCC(C4)N5C)cc3c2)s1 with its measured inhibition at 10 µM.
7

Annotate the compound Cc1nnc(-c2ccc3cnc(NC(=O)N4CCC(NCCC(F)(F)F)CC4)cc3c2)s1 with its measured inhibition at 10 µM.
36.8

Annotate the compound Cc1ncc(-c2cc3cc(NC(=O)[C@H]4CC[C@H](N5CCOCC5)CC4)ncc3cc2F)o1 with its measured inhibition at 10 µM.
18.3

Annotate the compound Cc1nnc(-c2ccc3cnc(NC(=O)CN4CCOCC4)cc3c2)n1C with its measured inhibition at 10 µM.
15.8

Annotate the compound Cc1nnc(-c2ccc3cnc(NC(=O)N4CCC(N5CCN(C)CC5)CC4)cc3c2)s1 with its measured inhibition at 10 µM.
4.5

Annotate the compound [2H]c1c(NC(=O)CN2CCOCC2)ncc2ccc(-c3nnc(C)s3)cc12 with its measured inhibition at 10 µM.
0

Annotate the compound Cn1cc(-c2cc(F)c3cnc(NC(=O)[C@H]4CC[C@@H](N(C)C)CC4)cc3c2)cn1 with its measured inhibition at 10 µM.
3.6

Annotate the compound [2H]c1c([2H])c([2H])c(C(=O)Nc2cc3cc(-c4cnc(C)n4C)ccc3cn2)c(Cl)c1[2H] with its measured inhibition at 10 µM.
1.6

Annotate the compound Cc1nnc(-c2ccc3cnc(NC(=O)N4CCC(N5CCOCC5)CC4)cc3c2)s1 with its measured inhibition at 10 µM.
8

Annotate the compound [2H]C([2H])([2H])c1ccc(C(=O)Nc2cc3cc(-c4cnc(C)n4C)ccc3cn2)cc1 with its measured inhibition at 10 µM.
42.2

Annotate the compound [2H]c1c([2H])c(C(=O)Nc2cc3cc(-c4cnc(C)n4C)ccc3cn2)c([2H])c([2H])c1C with its measured inhibition at 10 µM.
44.7

====

Molecular target: GSK3β kinase (Homo sapiens (Human))
Sequence (P49841 whole entry): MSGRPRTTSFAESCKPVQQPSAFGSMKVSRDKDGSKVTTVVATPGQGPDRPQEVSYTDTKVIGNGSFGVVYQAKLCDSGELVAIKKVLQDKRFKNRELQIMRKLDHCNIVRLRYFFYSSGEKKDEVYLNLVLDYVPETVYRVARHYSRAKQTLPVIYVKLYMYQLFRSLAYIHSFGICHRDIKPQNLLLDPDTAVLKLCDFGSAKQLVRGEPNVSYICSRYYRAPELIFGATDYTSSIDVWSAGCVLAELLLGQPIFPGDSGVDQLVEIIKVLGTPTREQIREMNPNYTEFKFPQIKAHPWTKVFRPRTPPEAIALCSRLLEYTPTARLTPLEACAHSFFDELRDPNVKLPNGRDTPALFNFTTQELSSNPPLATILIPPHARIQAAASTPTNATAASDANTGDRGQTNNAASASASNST
Experiment: GSK3β kinase assay (Ser/Thr 09 peptide Z-lyte, FRET);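 further: Coumarin/fluorescein emission ratio converted to percent phosphorylation against unphosphorylated (0%) and phosphorylated (100%) controls, 1 h compound incubation at room temperature, 11-point threefold dilutions from 10 µM, run in duplicate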
Conditions: method text calls the value IC50
pEC50: −log10 of the molar value.
The threshold is inclusive: pEC50 of exactly 7 counts as criterion met; values below receive criterion not met.

- SMILES_REPRESENTATION: "Cc1nnc(-c2ccc3cnc(NC(=O)N4C[C@H]5C[C@@H]4CN5C)cc3c2)s1"
  CLASS_LABEL: "criterion not met"
- SMILES_REPRESENTATION: "Cn1cc(-c2cc3cc(NC(=O)[C@H]4CC[C@H](N(C)C)CC4)ncc3cc2F)cn1"
  CLASS_LABEL: "criterion not met"

Hi, just wondering whether [2H]C([2H])([2H])Oc1ccc(C(=O)Nc2cc3cc(-c4cncn4C)ccc3cn2)cc1 shows pEC50 of 7 or higher.
criterion not met

Hi, just wondering whether Cc1nnc(-c2ccc3cnc(NC(=O)[C@H]4CC[C@H](N5CCOCC5)CC4)cc3c2)s1 shows pEC50 of 7 or higher.
criterion met

====

Test system: IL-6
Experiment: IL-6 inhibition in LPS-stimulated human peripheral blood mononuclear cells (HTRF)
Format: cell-based
Conditions: Homo sapiens, PBMC, read-out: percent value in parentheses below EC50 >10
PROPERTY_NAME: inhibition at 10 µM (%)
Note: unit % is implicit; provide only the numeric part.

// solved cases for inhibition at 10 µM follow
- SMILES_REPRESENTATION: "Cc1nnc(-c2ccc3cnc(NC(=O)C4CCN(CC(C)(F)F)CC4)cc3c2)s1"
  UNITS_TEXT: "%"
  inhibition at 10 µM: 4.3
- SMILES_REPRESENTATION: "Cc1nnc(-c2ccc3cnc(NC(=O)C4(F)CCN(C)CC4)cc3c2)s1"
  UNITS_TEXT: "%"
  inhibition at 10 µM: 5.6
- SMILES_REPRESENTATION: "Cn1cc(-c2ccc3cnc(NC(=O)N4CCOCC4)cc3c2)nn1"
  UNITS_TEXT: "%"
  inhibition at 10 µM: 5.7

Annotate the compound CN1CCC(N(C)C(=O)Nc2cc3cc(-c4cn(C)nn4)cc(F)c3cn2)CC1 with its measured inhibition at 10 µM.
3.3

Annotate the compound Cc1nnc(-c2ccc3cnc(NC(=O)N4CCC(NCCF)CC4)cc3c2)s1 with its measured inhibition at 10 µM.
28.8

Annotate the compound COC1CCN(CC(=O)Nc2cc3cc(-c4nnc(C)s4)ccc3cn2)CC1 with its measured inhibition at 10 µM.
9

Annotate the compound CN1CC2CCC(C1)N2C(=O)Nc1cc2cc(-c3cnn(C)c3)ccc2cn1 with its measured inhibition at 10 µM.
5.2

Annotate the compound Cc1nnc(-c2ccc3cnc(NC(=O)N4[C@@H]5CC[C@H]4C[C@@H](N)C5)cc3c2)s1 with its measured inhibition at 10 µM.
6.5

These entries and their values trace back to patent US10604514B2.
